The entries below are paired with their reported pEC50.
molecular target: UniProt Q96RI1; assay: one or more of the in vitro assays described herein (TR-FRET assay and/or co-transfection assay); settings: read-out: EC50 (apparent partial agonist activity)
pEC50: −log10 of the molar value.

>>> observed_measurement("CCNc1ccc(C#N)cc1/N=C1\\S/C(=C\\N(C)c2ccc(OC)cc2)C(=O)N1Cc1ccccc1")
"~6.00"

Please list pEC50 recorded for the compound "CCNc1ccc(C(C)=O)cc1/N=C1\S/C(=C\N(C)Cc2ccccc2)C(=O)N1Cc1ccccc1"
~6.00

====

Molecular target: full length human farnesoid X receptor (Homo sapiens, UniProt Q96RI1)
Construct: CMX-farnesoid X receptor (full length human farnesoid X receptor); expressed in transfected cells; host or cells: CV-1 African Green Monkey Kidney cells
Sequence (Q96RI1 1-472 isoform Q96RI1-2): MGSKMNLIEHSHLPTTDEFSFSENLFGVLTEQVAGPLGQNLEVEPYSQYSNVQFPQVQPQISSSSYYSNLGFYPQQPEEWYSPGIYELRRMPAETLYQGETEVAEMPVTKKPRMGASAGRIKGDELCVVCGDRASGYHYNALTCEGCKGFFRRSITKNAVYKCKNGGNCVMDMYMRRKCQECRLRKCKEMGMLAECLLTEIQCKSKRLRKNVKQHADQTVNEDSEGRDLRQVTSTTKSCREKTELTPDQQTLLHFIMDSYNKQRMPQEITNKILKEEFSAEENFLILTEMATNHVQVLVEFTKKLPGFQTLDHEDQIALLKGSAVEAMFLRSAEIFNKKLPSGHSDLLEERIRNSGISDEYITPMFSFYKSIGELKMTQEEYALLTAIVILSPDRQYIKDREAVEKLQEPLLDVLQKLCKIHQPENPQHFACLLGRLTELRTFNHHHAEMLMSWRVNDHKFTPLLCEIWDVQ
Sequence (P19793 1-462 partner): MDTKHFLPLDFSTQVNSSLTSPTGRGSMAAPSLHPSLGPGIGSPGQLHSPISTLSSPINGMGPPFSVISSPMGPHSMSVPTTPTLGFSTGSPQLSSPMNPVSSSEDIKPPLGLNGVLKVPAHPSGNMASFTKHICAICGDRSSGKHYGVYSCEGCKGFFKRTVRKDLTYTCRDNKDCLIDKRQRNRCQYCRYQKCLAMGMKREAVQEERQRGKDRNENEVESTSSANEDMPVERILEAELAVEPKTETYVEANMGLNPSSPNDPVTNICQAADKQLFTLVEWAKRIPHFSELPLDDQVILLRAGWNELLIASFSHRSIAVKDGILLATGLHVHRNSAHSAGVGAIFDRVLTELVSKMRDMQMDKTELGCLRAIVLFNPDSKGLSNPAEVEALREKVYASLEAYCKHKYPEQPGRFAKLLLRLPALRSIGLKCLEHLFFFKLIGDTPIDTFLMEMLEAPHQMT
Experiment: farnesoid X receptor/ECREx7 co-transfection assay
Format: cell-based
Details: agonist efficacy relative to chenodeoxycholic acid (CDCA) maximum response
test readout: Emax

>>> observed_measurement("CCNc1ccc(C(C)=O)cc1/N=C1\\S/C(=C\\N2CCc3ccccc32)C(=O)N1Cc1ccccc1")
"> 100%"

Lab note: full length human farnesoid X receptor (Homo sapiens, UniProt Q96RI1) assay, enter Emax for "CCNc1ccc(C(C)=O)cc1/N=C1\S/C(=C\N(C)c2ccccc2)C(=O)N1Cc1ccccc1" here
50 to 100%

Lab note: full length human farnesoid X receptor (Homo sapiens, UniProt Q96RI1) assay, enter Emax for "CCNc1ccc(C(C)=O)cc1/N=C1\S/C(=C\c2ccccc2)C(=O)N1Cc1ccccc1" here
50 to 100%

Lab note: full length human farnesoid X receptor (Homo sapiens, UniProt Q96RI1) assay, enter Emax for "CCNc1ccc(C(C)=O)cc1/N=C1\S/C(=C\N(C)c2cccc(OC)c2)C(=O)N1Cc1ccccc1" here
≥ 100%

Lab note: full length human farnesoid X receptor (Homo sapiens, UniProt Q96RI1) assay, enter Emax for "CCNc1ccc(C(C)=O)cc1/N=C1\S/C(=C\N(C)Cc2ccccc2)C(=O)N1Cc1ccccc1" here
50 to 100%

Lab note: full length human farnesoid X receptor (Homo sapiens, UniProt Q96RI1) assay, enter Emax for "CC(=O)Nc1ccc(/N=C2\S/C(=C\N3CCc4ccccc43)C(=O)N2Cc2ccco2)cc1" here
50 to 100%

Lab note: full length human farnesoid X receptor (Homo sapiens, UniProt Q96RI1) assay, enter Emax for "CCNc1ccc(C(C)=O)cc1/N=C1\S/C(=C\c2ccco2)C(=O)N1Cc1ccccc1" here
50 to 100%

Lab note: full length human farnesoid X receptor (Homo sapiens, UniProt Q96RI1) assay, enter Emax for "CCNc1ccc(C#N)cc1/N=C1\S/C(=C\N2CCc3ccccc32)C(=O)N1Cc1ccccc1" here
≥ 100%

Lab note: full length human farnesoid X receptor (Homo sapiens, UniProt Q96RI1) assay, enter Emax for "CCNc1ccc(C(C)=O)cc1/N=C1\S/C(=C\N(C)CCc2ccccc2)C(=O)N1Cc1ccccc1" here
50 to 100%

Lab note: full length human farnesoid X receptor (Homo sapiens, UniProt Q96RI1) assay, enter Emax for "CC(=O)c1cccc(/N=C2\S/C(=C\N3CCc4ccccc43)C(=O)N2Cc2ccco2)c1" here
50 to 100%
